Recorded kon for the following binders
biological target: Human BCMA (human) (UniProt Q02223); assay: SPR, IgG on chip, huBCMA analyte
Only the number, expressed in M⁻¹ s⁻¹, is required.

Sample records with kon:
binder	display-unit	kon
A02_Rd4_6nM_C22 (antibody, V domains shown, IgG) VH: EVQLLESGGGLVQPGGSLRLSCAASGFTFSSYAMNWVRQAPGKGLEWVSAVLDSGGSTYYADSVKGRFTISRDNSKNTLYLQMNSLRAEDTAVYYCARYWPMTPWGQGTLVTVSS VL: EIVLTQSPGTLSLSPGERATLSCRASQSVSSSYLAWYQQKPGQAPRLLMYDASIRATGIPDRFSGSGSGTDFTLTISRLEPEDFAVYYCQQYQVWPLTFGQGTKVEIK	M⁻¹ s⁻¹	3.38e+06
COMBO_Rd4_0.6nM_C19 (antibody, V domains shown, IgG) VH: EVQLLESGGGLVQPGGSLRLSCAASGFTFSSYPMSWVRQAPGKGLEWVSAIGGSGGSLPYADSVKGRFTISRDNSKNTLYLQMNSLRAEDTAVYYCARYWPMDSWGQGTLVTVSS VL: EIVLTQSPGTLSLSPGERATLSCRASQSVSAVYLAWYQQKPGQAPRLLMYDASIRATGIPDRFSGSGSGTDFTLTISRLEPEDFAVYYCQQYRAWPLTFGQGTKVEIK	M⁻¹ s⁻¹	7.86e+06
COMBO_Rd4_6nM_C08 (antibody, V domains shown, IgG) VH: EVQLLESGGGLVQPGGSLRLSCAASGFTFSSYPMSWVRQAPGKGLEWVSAIGGSGTWTYYADSVKGRFTISRDNSKNTLYLQMNSLRAEDTAVYYCARYWPMDSWGQGTLVTVSS VL: EIVLTQSPGTLSLSPGERATLSCRASQSVSSSYLAWYQQKPGQAPRLLMYDASIRATGIPDRFSGSGSGTDFTLTISRLEPEDFAVYYCQQYQKWPLTFGQGTKVEIK	M⁻¹ s⁻¹	8.99e+06

Query block: Look up kon: COMBO_Rd4_0.6nM_C30 (antibody, V domains shown, IgG) VH: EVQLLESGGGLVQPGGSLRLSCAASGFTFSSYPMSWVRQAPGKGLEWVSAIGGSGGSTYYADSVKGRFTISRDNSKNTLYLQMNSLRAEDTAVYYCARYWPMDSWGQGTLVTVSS VL: EIVLTQSPGTLSLSPGERATLSCRASQSVSYMYLAWYQQKPGQAPRLLIYDASIRATGIPDRFSGSGSGTDFTLTISRLEPEDFAVYYCQQYKSWPLTFGQGTKVEIK
Result block: 4.35e+06

Query block: I'd like to know its kon. The binder in question is A02_Rd4_6nM_C10 (antibody, V domains shown, IgG) VH: EVQLLESGGGLVQPGGSLRLSCAASGFTFSSYAMNWVRQAPGKGLEWVSAISDSGGSCWYADSVKGRFTISRDNSKNTLYLQMNSLRAEDTAVYYCARYWPMTPWGQGTLVTVSS VL: EIVLTQSPGTLSLSPGERATLSCRASQSVEMSYLAWYQQKPGQAPRLLMYDASIRATGIPDRFSGSGSGTDFTLTISRLEPEDFAVYYCQQYAHWPLTFGQGTKVEIK
Result block: 4.51e+06
